Sequence of the target: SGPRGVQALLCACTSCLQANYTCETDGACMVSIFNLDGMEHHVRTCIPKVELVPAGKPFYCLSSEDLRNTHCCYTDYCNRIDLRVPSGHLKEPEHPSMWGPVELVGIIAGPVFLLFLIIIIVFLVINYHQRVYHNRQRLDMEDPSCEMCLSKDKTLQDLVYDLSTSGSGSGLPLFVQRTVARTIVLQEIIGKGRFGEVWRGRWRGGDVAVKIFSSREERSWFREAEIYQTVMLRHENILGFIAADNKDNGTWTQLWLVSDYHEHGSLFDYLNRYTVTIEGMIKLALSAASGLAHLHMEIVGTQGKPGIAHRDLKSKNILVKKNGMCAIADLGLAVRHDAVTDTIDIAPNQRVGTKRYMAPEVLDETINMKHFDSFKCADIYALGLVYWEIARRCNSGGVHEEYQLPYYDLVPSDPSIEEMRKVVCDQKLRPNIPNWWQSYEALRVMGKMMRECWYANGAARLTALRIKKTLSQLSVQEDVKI
Property: Ki

                                   compound  observed_value
0  COc1ccc2nc(C)cc(-c3cnc4cc(-c5ccc(C6CCN(C)CC6)cc5)ccn34)c2c1 [Compound 95]          292 nM

From: patent US20190218214A1
